The values you see were collected from paper PMC4220016.

# Target or test system: 5-HT3A receptor F226C (Homo sapiens, UniProt P46098, F221C)
# Construct: expressed in transfected cells; host or cells: HEK 293
# Test name: Saturation binding of [^3H]VUF10166 at 5-HT3A receptor mutant
# Test context: F226C, Loop C; read-out: Kd (nM) Mean ± SEM
Measure name: Kd (nM)
Answers are plain numbers, in nM.

Test item CN1CCN(c2nc3ccccc3nc2Cl)CC1 [[^3H]VUF10166] ; 5-HT3A receptor F226C (Homo sapiens, UniProt P46098, F221C); reported Kd was 1.59

* * *

# Target or test system: 5-HT3A receptor S114C (Homo sapiens, UniProt P46098, S109C)
# Construct: expressed in transfected cells; host or cells: HEK 293
# Test name: Saturation binding of [^3H]VUF10166 at 5-HT3A receptor mutant
# Test context: S114C; read-out: Kd (nM) Mean ± SEM
Measure name: Kd (nM)
Give bare numbers, in nM.

Documented Kd of CN1CCN(c2nc3ccccc3nc2Cl)CC1 [[^3H]VUF10166] : 0.21

* * *

# Target or test system: 5-HT3A receptor T181C (Homo sapiens, UniProt P46098, T176C/T181C)
# Construct: expressed in transfected cells; host or cells: HEK 293
# Test name: Saturation binding of [^3H]VUF10166 at 5-HT3A receptor mutant
# Test context: Loop B, read-out: Kd (nM) Mean ± SEM
# Experimental: Mutagenesis was performed using the QuikChange method (Agilent Technologies Inc., California, USA) on human 5-HT3A cDNA (accession number: P46098) cloned into pcDNA3.1 (Invitrogen, Paisley, UK). Cysteine residues were substituted for amino acids throughout each of the binding loops A–E (Fig. 1). […] All data were analysed using GraphPad Prism 4.03.
Measure name: Kd

Documented Kd of CN1CCN(c2nc3ccccc3nc2Cl)CC1 [[^3H]VUF10166] : > 10 nM

* * *

# Target or test system: 5-HT3A receptor H185C (Homo sapiens, UniProt P46098, H180C)
# Construct: expressed in transfected cells; host or cells: HEK 293
# Sequence (P46098 24-478 H180C): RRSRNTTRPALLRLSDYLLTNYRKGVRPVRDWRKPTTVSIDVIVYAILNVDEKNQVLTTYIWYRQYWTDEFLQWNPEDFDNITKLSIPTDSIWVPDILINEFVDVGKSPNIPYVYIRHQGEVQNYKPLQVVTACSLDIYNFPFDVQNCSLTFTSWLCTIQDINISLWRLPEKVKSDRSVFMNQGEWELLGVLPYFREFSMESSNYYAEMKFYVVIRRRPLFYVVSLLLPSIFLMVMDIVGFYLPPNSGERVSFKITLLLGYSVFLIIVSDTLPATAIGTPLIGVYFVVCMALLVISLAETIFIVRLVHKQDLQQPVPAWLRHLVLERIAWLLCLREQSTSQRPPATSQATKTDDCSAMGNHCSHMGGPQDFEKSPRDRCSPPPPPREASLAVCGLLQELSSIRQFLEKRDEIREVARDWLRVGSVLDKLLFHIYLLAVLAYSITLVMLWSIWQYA
# Test name: Saturation binding of [^3H]VUF10166 at 5-HT3A receptor mutant
# Test context: H185C, Loop B; read-out: Kd (nM) Mean ± SEM
Measure name: Kd (nM)
One number for each entry, in nM.

Documented Kd of CN1CCN(c2nc3ccccc3nc2Cl)CC1 [[^3H]VUF10166] : 0.96

* * *

# Target or test system: 5-HT3A receptor L126C (Homo sapiens, UniProt P46098, L121C)
# Construct: expressed in transfected cells; host or cells: HEK 293
# Test name: Saturation binding of [^3H]VUF10166 at 5-HT3A receptor mutant
# Test context: L126C, Loop A; read-out: Kd (nM) Mean ± SEM
Measure name: Kd (nM)
One number for each entry, in nM.

Test item CN1CCN(c2nc3ccccc3nc2Cl)CC1 [[^3H]VUF10166] ; 5-HT3A receptor L126C (Homo sapiens, UniProt P46098, L121C); reported Kd was 0.89

* * *

# Target or test system: 5-HT3AB receptors (Homo sapiens, UniProt O95264+P46098)
# Test name: Kinetic measurements (association, dissociation) at 5-HT3AB receptors
# Type: binding
# Set-up: expressed in transfected cells; host or cells: HEK 293
# Test context: second component (>3 nM), from kinetic rates, Equ (4), read-out: Kd(nM) (kon/koff)
Measure name: Kd (nM)
Numbers only, in nM.

Documented Kd of `CN1CCN(c2nc3ccccc3nc2Cl)CC1` : 22.4

* * *

Consider the following compounds; for each one, report its Kd.
# Target or test system: 5-HT3AB receptors (Homo sapiens, UniProt O95264+P46098)
# Sequence (P46098 24-478): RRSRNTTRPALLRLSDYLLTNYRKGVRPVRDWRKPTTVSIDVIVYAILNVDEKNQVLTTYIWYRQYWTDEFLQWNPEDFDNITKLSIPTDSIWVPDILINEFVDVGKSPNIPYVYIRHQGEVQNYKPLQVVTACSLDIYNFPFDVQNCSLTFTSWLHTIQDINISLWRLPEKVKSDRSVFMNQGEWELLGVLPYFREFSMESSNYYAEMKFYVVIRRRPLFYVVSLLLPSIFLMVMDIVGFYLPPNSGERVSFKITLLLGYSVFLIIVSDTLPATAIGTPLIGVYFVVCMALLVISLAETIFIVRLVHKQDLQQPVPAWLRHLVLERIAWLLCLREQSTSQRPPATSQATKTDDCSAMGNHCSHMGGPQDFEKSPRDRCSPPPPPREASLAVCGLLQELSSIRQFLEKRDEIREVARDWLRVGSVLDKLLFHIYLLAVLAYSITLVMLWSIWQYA
# Sequence (O95264 22-441): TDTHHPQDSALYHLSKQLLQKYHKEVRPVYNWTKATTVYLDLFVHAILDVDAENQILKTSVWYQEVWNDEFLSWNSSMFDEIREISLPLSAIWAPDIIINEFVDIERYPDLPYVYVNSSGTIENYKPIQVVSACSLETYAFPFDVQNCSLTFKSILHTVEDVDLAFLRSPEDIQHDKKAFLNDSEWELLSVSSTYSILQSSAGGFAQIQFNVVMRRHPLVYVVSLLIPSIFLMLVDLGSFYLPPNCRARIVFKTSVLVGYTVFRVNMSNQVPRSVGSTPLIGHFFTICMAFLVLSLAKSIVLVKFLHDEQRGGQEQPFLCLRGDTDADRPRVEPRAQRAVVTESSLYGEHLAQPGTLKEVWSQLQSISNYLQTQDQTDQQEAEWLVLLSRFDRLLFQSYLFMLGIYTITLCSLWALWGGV
# Test name: Kinetic measurements (association, dissociation) at 5-HT3AB receptors
# Type: binding
# Set-up: expressed in transfected cells; host or cells: HEK 293
# Test context: first component, from kinetic rates, Equ (4), read-out: Kd(nM) (kon/koff)
One number for each entry, in nM.

compound="CN1CCN(c2nc3ccccc3nc2Cl)CC1 [VUF10166]" target_or_test_system="5-HT3AB receptors (Homo sapiens, UniProt O95264+P46098)" measure_name=Kd readout_value=0.38

Consider now this further compound.
Documented Kd of CN1CCN(c2nc3ccccc3nc2Cl)CC1 [[^3H]VUF10166] : 0.38

* * *

Consider the following compounds; for each one, report its IC50.
# Target or test system: 5-HT3AB receptors (Homo sapiens, UniProt O95264+P46098)
# Test name: biochemical
Numbers only, in µM.

Hi, could you look up IC50 for each item in my list?
1. CN1CCC[C@H]1c1cccnc1
2. COc1cc2c3cc1Oc1cc(ccc1O)C[C@@H]1c4c(cc(OC)c(O)c4Oc4ccc(cc4)C[C@@H]3N(C)CC2)CC[N+]1(C)C

Solution:
1: 0.275; 2: 51.3

Documented IC50 of `O=C1C[C@@H]2OCC=C3CN4CC[C@]56c7ccccc7N1[C@H]5[C@H]2[C@H]3C[C@H]46` : 14.1

* * *

# Target or test system: 5-HT3A receptors (Homo sapiens)
# Test name: Competition binding with [^3H]VUF10166 at 5-HT3A receptors
# Test context: 5-HT3A
Measure name: inhibition of specific [^3H]VUF10166 binding (in words)

Before answering, review these 4 worked examples.
molecule=NCC(=O)O readout_value=not
molecule="NC(N)=NC(N)=Nc1cccc(Cl)c1 [mCPBG, meta-chlorophenylbiguanide]" readout_value=inhibited
molecule=CC(=O)OCC[N+](C)(C)C readout_value=not
molecule=c1ccc2nc(N3CCNCC3)ccc2c1 readout_value=inhibited

Consider now this further molecule.
Documented inhibition of specific [^3H]VUF10166 binding (in words) of `COc1ccc(-c2ccc(=N)n(CCCC(=O)O)n2)cc1` : not

* * *

# Target or test system: 5-HT3A receptor D189C (Homo sapiens, UniProt P46098, D184C)
# Construct: expressed in transfected cells; host or cells: HEK 293
# Test name: Saturation binding of [^3H]VUF10166 at 5-HT3A receptor mutant
# Test context: Loop B, read-out: Kd (nM) Mean ± SEM
Measure name: Kd

Documented Kd of CN1CCN(c2nc3ccccc3nc2Cl)CC1 [[^3H]VUF10166] : > 10 nM
